- Target system: T1, full-length hCDCP1 with N-terminal c-Myc tag (expression vector GS01), on Ba/F3-hCDCP1 cells or … (human, UniProt Q9H5V8 30-836)
- T1 construct: also called human CDCP1; hCDCP1 forced expression cells
- T1 sequence: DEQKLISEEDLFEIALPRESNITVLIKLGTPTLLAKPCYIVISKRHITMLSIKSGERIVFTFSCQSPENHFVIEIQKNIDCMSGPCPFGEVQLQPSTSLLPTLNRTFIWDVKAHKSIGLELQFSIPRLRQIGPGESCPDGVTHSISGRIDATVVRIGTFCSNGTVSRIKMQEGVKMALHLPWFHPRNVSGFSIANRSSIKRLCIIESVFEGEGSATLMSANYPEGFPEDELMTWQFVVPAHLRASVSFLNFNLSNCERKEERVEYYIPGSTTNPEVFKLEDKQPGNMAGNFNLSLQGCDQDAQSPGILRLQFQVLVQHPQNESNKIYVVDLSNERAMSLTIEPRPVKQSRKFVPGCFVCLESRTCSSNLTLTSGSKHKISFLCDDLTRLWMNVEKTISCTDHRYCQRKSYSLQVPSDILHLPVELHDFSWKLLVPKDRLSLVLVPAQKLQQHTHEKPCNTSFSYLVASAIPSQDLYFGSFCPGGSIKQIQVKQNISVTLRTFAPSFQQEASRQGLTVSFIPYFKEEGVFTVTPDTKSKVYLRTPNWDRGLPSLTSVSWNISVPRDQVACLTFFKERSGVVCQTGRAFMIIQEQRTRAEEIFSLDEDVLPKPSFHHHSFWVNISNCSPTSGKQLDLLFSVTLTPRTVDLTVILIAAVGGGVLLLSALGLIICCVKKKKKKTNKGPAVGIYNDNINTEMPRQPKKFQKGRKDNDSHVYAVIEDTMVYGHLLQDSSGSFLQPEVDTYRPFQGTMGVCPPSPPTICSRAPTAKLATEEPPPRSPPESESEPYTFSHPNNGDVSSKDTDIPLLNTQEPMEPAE
- Experimental protocol: flow cytometry on Ba/F3-hCDCP1 cells
Measurement type: binding result

| Binder | Measurement type | Endpoint result |
| --- | --- | --- |
| mh14A025HCv7/LCori (antibody, human IgG1, kappa, V domains shown, mouse-human chimeric antibody, human IgG1/kappa constant regions) VH: EVQLQESGAELVRPGALVKLSCKASGFNIKDYYMHWVKQRPEQGLEWIGWIDPENENTIYDPKFQGKASITADTSSNTAYLQLSSLTSEDTAVYYCGGLLYAMDYWGQGTSVTVSS VL: DIQMTQTTSSLSASLGDRVTISCRASQDISNYLNWYQQKPDGTVKLLIYFTSRLHSGVPSRFSGSGSGTDYSLTISNLEQEDIATYFCQQGNTLPRTFGGGTKLEIRR | binding result | binds |
| mh14A025HCv1/LCori (antibody, human IgG1, kappa, V domains shown, mouse-human chimeric antibody, human IgG1/kappa constant regions) VH: EVQLQESGAELVRPGALVKLSCKASGFNIKDYYMHWVKQRPEQGLEWIGWIDPESGNTIYDPKFQGKASITADTSSNTAYLQLSSLTSEDTAVYYCGGLLYAMDYWGQGTSVTVSS VL: DIQMTQTTSSLSASLGDRVTISCRASQDISNYLNWYQQKPDGTVKLLIYFTSRLHSGVPSRFSGSGSGTDYSLTISNLEQEDIATYFCQQGNTLPRTFGGGTKLEIRR | binding result | binds |
| mh12A041HCv1/LCv1 (antibody, human IgG1, kappa, V domains shown, mouse-human chimeric antibody, human IgG1/kappa constant regions) VH: EVQLQESGPGILQPSQTLSLTCSFSGFSLSTSGMGVSWIRQPSGKGLEWLAHIYWDDDKRYNPSLKSRLTISKDTSSNQVFLKITSVDTADTATYYCARSGSYYGSSLDSWGQGTTLTVSS VL: DVLMTQTPLSLPVSLGDQASISCRSSQSIVHSSGNTYLEWYLQKPGQSPKLLIYKVSNRFSGVPDRFSGSGSGTDFTLKISRVEAEDLGVYYCFQGSHVPWTFGGGTKLEIRR | binding result | binds |
